Taken from ChEMBL document CHEMBL4823266.

test: Resistance index, ratio of IC50 for human A549/Taxol cells to IC50 for human A549 cells; assay type: functional
Would you mind telling me the reported Ratio IC50 of each entry?

Sample records with Ratio IC50:
CO[C@H]1C(=O)[C@]2(C)[C@@H](OC)C[C@H]3OC[C@@]3(OC(C)=O)[C@H]2[C@H](OC(=O)c2ccccc2)[C@]2(O)C[C@H](OC(=O)[C@H](O)[C@H](C=C(C)C)NC(=O)OC(C)(C)C)C(C)=C1C2(C)C; 5
CC(=O)O[C@@]12CO[C@@H]1C[C@H](OCS(C)(=O)=O)[C@@]1(C)C(=O)[C@H](OCS(C)(=O)=O)C3=C(C)[C@@H](OC(=O)[C@H](O)[C@@H](NC(=O)OC(C)(C)C)c4ccccc4)C[C@@](O)([C@@H](OC(=O)c4ccccc4)[C@H]21)C3(C)C; 36.9
CSCO[C@H]1C(=O)[C@]2(C)[C@@H](OCSC)C[C@H]3OC[C@@]3(OC(C)=O)[C@H]2[C@H](OC(=O)c2ccccc2)[C@]2(O)C[C@H](OC(=O)[C@H](O)[C@H](C=C(C)C)NC(=O)OC(C)(C)C)C(C)=C1C2(C)C; 2.9

Attention now shifts to the item below.
Query: Could you share which Ratio IC50 value was measured for "CO[C@H]1C(=O)[C@]2(C)[C@@H](OC)C[C@H]3OC[C@@]3(OC(C)=O)[C@H]2[C@H](OC(=O)c2ccccc2)[C@]2(O)C[C@H](OC(=O)[C@H](O)[C@@H](NC(=O)OC(C)(C)C)C(F)F)C(C)=C1C2(C)C" ?
Result: 2.5
